# protocolNotes: NCI Yeast Anticancer Drug Screen. Data for the bub3 strain (AID 167)
# testConditions: S. cerevisiae bub3 mutant strain, at 5.0 µM (retest, dose inferred, filed as 0.5)
Compounds without any hit were thinned out: in the full panel of roughly 79,000, 15% have a hit. Calls of active or inactive are those of the source. Cut-off read from the data, not from the text of the source: active = growth inhibition above about 70%; inactive = the rest.
Choose the fitting class; nothing outside active, inactive is accepted.

Use the examples below as a reference point.
molecule	group
O=[N+]([O-])c1ccc(O)c(-c2ccccc2)c1	inactive
Cc1ccc2nc(CC(=O)c3cccnc3)c(CC(=O)c3cccnc3)nc2c1	inactive
CC[C@@H]1O[C@@H]([C@@H]2CC[C@](O)([C@]3(C)CC[C@@H]([C@@H](C)[C@@]4(O)CC[C@H](C)[C@@H](C[C@@]5(O)O[C@@H]([C@@H](C)[C@H](O)C[C@H]6CC[C@H](C)[C@@H]([C@@H](C)C(=O)O)O6)CC[C@@H]5C)O4)O3)O2)CC[C@@]1(C)O	inactive
N#CSc1ccc(Nc2ccc(SC#N)cc2)cc1	active
CC(C)OC(=O)C1C=CCc2c(O)ccc(O)c21 (centres undefined)	inactive
CCCc1cc(=O)oc2c3c(c4c(c12)OC(C)(C)CC4)O[C@H](C)[C@H](C)C3=O	inactive
Cn1c(=S)c2[nH]c(SCCN3CCOCC3)nc2n(C)c1=O	inactive
COc1cc2c(cc1OC(C)=O)C(=O)C(Br)(Br)CCC2	inactive

Next:
Dear colleague, could you share the recorded outcome for CNC(=O)NC(c1cc(OC)c(OC)c(OC)c1)c1cc2c(cc1O)OCO2 (centres undefined) when you have a moment?
inactive

---

# protocolNotes: NCI Yeast Anticancer Drug Screen. Data for the mec2-1 strain (AID 157)
# testConditions: S. cerevisiae mec2-1 strain, at 50.0 µM
Compounds without any hit were thinned out: in the full panel of roughly 79,000, 15% have a hit. Active and inactive are the calls of the source. Cut-off read from the data, not from the text of the source: active = growth inhibition above about 70%; inactive = the rest.
Could you please pick one outcome from this set? active, inactive

Worked set:
compound	group
OCCc1c2ccccc2cc2ccccc12	inactive
O=C(O)c1ccccc1-c1ccccc1C(=O)Nc1ccc2c(c1)Cc1cc(F)ccc1-2	active
COc1cc(/C=C2\Sc3scc(-c4cccc([N+](=O)[O-])c4)[n+]3C2=O)cc(OC)c1OC	active
CCCCCCCCCCCCCCNC(=O)CCC(NC(=O)c1ccc(N(C)Cc2cnc3nc(N)nc(N)c3n2)cc1)C(=O)NCCCCCCCCCCCCCC (stereo not given)	active
CC(C)(C)CC(C)(C)c1ccc(Oc2ccc([N+](=O)[O-])cc2S(=O)(=O)O)cc1	inactive
CCOC(=O)c1c(N2CCCC2)nsc1Nc1ccc(F)cc1	active
COc1cc(OC)cc(C2SCC(=O)N2c2nncs2)c1 (stereo not given)	active
CN1CCC(OC(=O)c2ccc3ncccc3c2)CC1	inactive

Recorded test call requested for "Cc1cc(N2C(=O)CCSC2=S)ccc1Cl"
active

# fetch the recorded call for "O=C1C(Br)=C(Sc2ccc([N+](=O)[O-])cc2)C(=O)c2ccccc21" here
active

---

# protocolNotes: NCI Yeast Anticancer Drug Screen. Data for the mlh1 rad18 strain (AID 175)
# testConditions: S. cerevisiae mlh1 rad18 strain growth inhibition; at 50.0 µM (retest, dose inferred, filed as 5.0); active compounds read high
# Protocol: Growth inhibition of yeast strains with defined genetic alterations is measured as a screen for potential anti-cancer activity. Selected strains with alterations in DNA damage repair or cell cycle control were exposed to compounds and growth inhibition was measured relative to vehicle treated controls. The strain used in this assay is mlh1 rad18
Compounds without any hit were thinned out: in the full panel of roughly 79,000, 15% have a hit.
Assign class by growth inhibition: not lower than 80% means label 1; lower than 80% means label 0.

As a guide, the following entries are already answered.
compound	group
O=C1CSC(=S)N1Cc1ccncc1	label 0
C=Cc1cc(N=Nc2ccc([N+](=O)[O-])cc2)ccc1N(C)C	label 0
CSc1ccc(C(=O)C(=O)c2ccc(SC)s2)s1	label 0
O=C(N/C(=C\c1cccc([N+](=O)[O-])c1)c1nc2ccccc2s1)c1ccccc1	label 1
CC(C)OC(=O)Oc1c(Cl)c(Cl)c(Cl)c(Cl)c1Cl	label 1
Clc1ccc(OCC(Cn2ccnc2)c2ccc(Cl)cc2)cc1 (stereo not drawn)	label 1

Exam item: decide whether the reported growth inhibition for "O=c1c2ccccc2c2ccccc2n1O" is at least 80%.
label 1

# check: growth inhibition of "NC(=Nc1ccccc1)SCc1ccc([N+](=O)[O-])cc1" is greater than or equal to 80%
label 0

In plain terms: is recorded growth inhibition at least 80% for Clc1ccc(OCC2CO2)c(Cl)c1 (stereo not drawn) ?
label 1

Say whether CC/C=C(\C)CC(C)O (stereo not drawn) shows growth inhibition of 80% or more.
label 0

Hi team, for COc1cc(C2CC(=O)c3ccccc3O2)ccc1O (stereo not drawn) , is the recorded growth inhibition at or above 80%?
label 1

I'd appreciate it if you could say whether "COC(=O)CCN1c2ccccc2Sc2ccccc21" has growth inhibition at least equal to 80%.
label 0
